target: KRAS G12C (Homo sapiens, UniProt P01116, G12C); assay: GDP-GTP exchange assay (KRAS_G12C exchange assay); conditions: bodipy-loaded KRAS G12C 2.5 nM, SOS1 150 nM, 2 hours pre-incubation with inhibitor; read-out: G12C_exchange
Sequence (P01116 1-188 isoform P01116-2 G12C): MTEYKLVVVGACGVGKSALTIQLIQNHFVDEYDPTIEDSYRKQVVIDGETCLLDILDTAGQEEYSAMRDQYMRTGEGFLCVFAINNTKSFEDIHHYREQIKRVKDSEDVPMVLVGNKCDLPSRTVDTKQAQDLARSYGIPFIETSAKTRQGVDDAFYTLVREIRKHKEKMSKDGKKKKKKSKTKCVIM
pIC50: −log10 of the molar value.
Readout Name: pIC50

>  <Compound>
C=CC(=O)N1CCC(n2nnc3c(O[C@@H](C)[C@@H]4CCCN4C)nc4c(F)c(-c5ccc(F)c6cccnc56)c(C(F)(F)F)cc4c32)CC1 (single isomer, unassigned) [Example 5b]

>  <Assay System>
KRAS G12C (Homo sapiens, UniProt P01116, G12C)

>  <Obs Value>
≥ 7.30

$$$$
>  <Compound>
C=CC(=O)N1CC[C@H](n2nnc3c(O[C@@H](C)[C@@H]4CCCN4C)nc4c(F)c(-c5cccc6c5c(CC#N)cn6C)c(C)cc4c32)C[C@H]1C (single isomer, unassigned) [Example 31a]

>  <Assay System>
KRAS G12C (Homo sapiens, UniProt P01116, G12C)

>  <Obs Value>
6.00 to 7.00

$$$$
>  <Compound>
C=C(F)C(=O)N1CC[C@H](n2nnc3c(N4CC(C)(N(C)C)C4)nc4c(F)c(-c5cccc6cccc(C#N)c56)c(C)cc4c32)C[C@H]1CC#N (single isomer, unassigned) [Example 17b]

>  <Assay System>
KRAS G12C (Homo sapiens, UniProt P01116, G12C)

>  <Obs Value>
6.00 to 7.00

$$$$
>  <Compound>
C=CC(=O)N1CC[C@H](n2nnc3c(O[C@@H](C)[C@@H]4CCCN4C)nc4c(F)c(-c5cccc6c5c(CC#N)nn6C)c(C)cc4c32)C[C@H]1C (single isomer, unassigned) [Example 28a]

>  <Assay System>
KRAS G12C (Homo sapiens, UniProt P01116, G12C)

>  <Obs Value>
6.00 to 7.00

$$$$

Attention now turns to another entry.
// lookup pIC50 for CN(C)C1(C)CN(c2nc3c(Cl)c(-c4ccc(F)c5cccnc45)c(Cl)cc3c3c2nnn3[C@H]2CCN(C(=O)/C=C/CF)[C@H](CC#N)C2)C1 (single isomer, unassigned) [Example 19b]
≥ 7.30

###

Experiment: Human whole blood stability
Assay type: in vitro ADME
Conditions: percent remaining at 4 hr, 1 μM, 37° C.
Method: The whole blood stability of the exemplified compounds was determined by LC-MS/MS. The 96-Well Flexi-Tier™ Block (Analytical Sales & Services, Inc, Flanders, NJ) is used for the incubation plate containing 1.0 mL glass vials with 0.5 mL of blood per vial (pooled gender, human whole blood sourced from BIOIVT, Hicksville, NY or similar). Blood is pre-warmed in water bath to 37° C. for 30 minutes. 96-deep well analysis plate is prepared with the addition of 100 μL ultrapure water/well. […]
Readout Name: Human whole blood stability at 4 hr

>  <Compound>
C=C(F)C(=O)N1CC[C@H](n2nnc3c(N4CC(C)(N(C)CC)C4)nc4c(F)c(-c5c(C)c(F)cc6[nH]ncc56)c(C)cc4c32)C[C@H]1CC#N (single isomer, unassigned) [Example 29]

>  <Human whole blood stability at 4 hr>
††† (WBS >90%)

$$$$
>  <Compound>
C=CC(=O)N1CCC(n2nnc3c(O[C@@H](C)[C@@H]4CCCN4C)nc4c(F)c(-c5cccc6cccc(C#N)c56)c(C)cc4c32)CC1 (single isomer, unassigned) [Example 11b]

>  <Human whole blood stability at 4 hr>
†† (WBS >70% but ≤90%)

$$$$
>  <Compound>
COC/C=C/C(=O)N1CC[C@H](n2nnc3c(O[C@@H](C)[C@@H]4CCCN4C)nc4c(F)c(-c5c(F)cccc5OC)c(C)cc4c32)C[C@H]1CC#N (single isomer, unassigned) [Example 34b]

>  <Human whole blood stability at 4 hr>
††† (WBS >90%)

$$$$
>  <Compound>
Cc1ccc(-c2c(C)cc3c(nc(O[C@@H](C)[C@@H]4CCCN4C)c4nnn([C@H]5CCN(C(=O)/C=C/CF)[C@H](CC#N)C5)c43)c2F)cn1 [Example 8]

>  <Human whole blood stability at 4 hr>
†† (WBS >70% but ≤90%)

$$$$
>  <Compound>
C=C(F)C(=O)N1CC[C@H](n2nnc3c(N4CC(C)(N(C)CC)C4)nc4c(F)c(-c5c(C)c(C)cc6[nH]ncc56)c(C)cc4c32)C[C@H]1CC#N (single isomer, unassigned) [Example 30]

>  <Human whole blood stability at 4 hr>
††† (WBS >90%)

$$$$
>  <Compound>
C=CC(=O)N1CCC(n2nnc3c(O[C@@H](C)[C@@H]4CCCN4C)nc4c(F)c(-c5cccc6c5c(CC#N)cn6C)c(C)cc4c32)CC1 (single isomer, unassigned) [Example 32b]

>  <Human whole blood stability at 4 hr>
†† (WBS >70% but ≤90%)

$$$$
>  <Compound>
COc1c(Cl)cccc1-c1c(C(F)(F)F)cc2c(nc(N3CC(C)(N(C)C)C3)c3nnn([C@H]4CCN(C(=O)/C=C/CF)[C@H](CC#N)C4)c32)c1F (single isomer, unassigned) [Example 3a]

>  <Human whole blood stability at 4 hr>
†† (WBS >70% but ≤90%)

$$$$
>  <Compound>
Cc1cc2c(nc(O[C@@H](C)[C@@H]3CCCN3C)c3nnn([C@H]4CCN(C(=O)/C=C/CF)[C@H](CC#N)C4)c32)c(F)c1-c1ccc2cnn(C)c2c1 [Example 7]

>  <Human whole blood stability at 4 hr>
††† (WBS >90%)

$$$$

Form field: reported Human whole blood stability at 4 hr of COC/C=C/C(=O)N1CC[C@H](n2nnc3c(N4CC(C)(N(C)C)C4)nc4c(Cl)c(-c5ccc(F)c6cccnc56)c(Cl)cc4c32)C[C@H]1CC#N (single isomer, unassigned) [Example 18a]
††† (WBS >90%)

Ok, now COC/C=C/C(=O)N1CC[C@H](n2nnc3c(N4CC(C)(N(C)C)C4)nc4c(F)c(-c5ccc(F)c6cccnc56)c(C(F)(F)F)cc4c32)C[C@H]1CC#N (single isomer, unassigned) [Example 20]
††† (WBS >90%)

Next: COC/C=C/C(=O)N1CC[C@H](n2nnc3c(O[C@@H](C)[C@@H]4CCCN4C)nc4c(F)c(-c5ccc(F)cc5)c(C)cc4c32)C[C@H]1CC#N [Example 10]
††† (WBS >90%)

// query: C=CC(=O)N1CC[C@H](n2nnc3c(O[C@@H](C)[C@@H]4CCCN4C)nc4c(F)c(-c5cccc6cccc(C#N)c56)c(C)cc4c32)C[C@H]1C (single isomer, unassigned) [Example 14b]
††† (WBS >90%)

Also need C=CC(=O)N1CC[C@H](n2nnc3c(O[C@@H](C)[C@@H]4CCCN4C)nc4c(F)c(-c5cccc6c5c(CC#N)cn6C)c(C)cc4c32)C[C@H]1C (single isomer, unassigned) [Example 31b] , thanks.
†† (WBS >70% but ≤90%)

Likewise for CN(C)C1(C)CN(c2nc3c(Cl)c(-c4ccc(F)c5cccnc45)c(Cl)cc3c3c2nnn3[C@H]2CCN(C(=O)/C=C/CF)[C@H](CC#N)C2)C1 (single isomer, unassigned) [Example 19a] ?
†† (WBS >70% but ≤90%)

Check COc1c(C)cccc1-c1c(C(F)(F)F)cc2c(nc(N3CC(C)(N(C)C)C3)c3nnn([C@H]4CCN(C(=O)/C=C/CF)[C@H](CC#N)C4)c32)c1F (single isomer, unassigned) [Example 2a] too.
†† (WBS >70% but ≤90%)

Further, for C=C(F)C(=O)N1CC[C@H](n2nnc3c(N4CC(C)(N(C)CC)C4)nc4c(F)c(-c5c(C)c(C)cc6[nH]ncc56)c(Cl)cc4c32)C[C@H]1CC#N (single isomer, unassigned) [Example 33a] ?
†† (WBS >70% but ≤90%)

Follow-up item: COC/C=C/C(=O)N1CC[C@H](n2nnc3c(O[C@@H](C)[C@@H]4CCCN4C)nc4c(F)c(-c5ncc(F)c6ccccc56)c(C)cc4c32)C[C@H]1CC#N [Example 21]
††† (WBS >90%)

Moving on to C[C@H](Oc1nc2c(F)c(-c3ccc(F)c4cccnc34)c(C(F)(F)F)cc2c2c1nnn2[C@H]1CCN(C(=O)/C=C/CF)[C@H](CC#N)C1)[C@@H]1CCCN1C (single isomer, unassigned) [Example 4a]
††† (WBS >90%)

Input C=C(F)C(=O)N1CC[C@H](n2cnc3c(O[C@@H](C)[C@@H]4CCCN4C)nc4c(F)c(-c5cccc(C)c5Cl)c(C)cc4c32)C[C@H]1CC#N [Example 13]
†† (WBS >70% but ≤90%)

###

test system: KRAS_G12C pERK; assay: Cellular pERK HTRF assay (KRAS_G12C pERK assay); type: cell-based, human; details: KRAS G12C cells, 4 hours incubation with compound; read-out: G12C_pERK
Readout Name: IC50

>  <Compound>
COC/C=C/C(=O)N1CC[C@H](n2nnc3c(O[C@@H](C)[C@@H]4CCCN4C)nc4c(F)c(-c5c(C)ncc6ccccc56)c(C)cc4c32)C[C@H]1CC#N (single isomer, unassigned) [Example 24b]

>  <Assay System>
KRAS_G12C pERK

>  <IC50>
≤ 50 nM

$$$$

# IC50 lookup, item C=C(F)C(=O)N1CC[C@H](n2nnc3c(O[C@@H](C)[C@@H]4CCCN4C)nc4c(F)c(-c5c(F)ccc6ccc(C)nc56)c(C)cc4c32)C[C@H]1CC#N (single isomer, unassigned) [Example 25b]
≤ 50 nM

Moving on to COC/C=C/C(=O)N1CC[C@H](n2nnc3c(O[C@@H](C)[C@@H]4CCCN4C)nc4c(F)c(-c5cnc(C)c6ccccc56)c(C)cc4c32)C[C@H]1CC#N (single isomer, unassigned) [Example 26b]
≤ 50 nM
